Reported absorbance is given for each of the following binders.
- tested-on: T1, HER2-ECD-Fc (human, UniProt P04626 23-652)
- T1 construct: extracellular domain; Produced in FreeStyle 293F cells; also called HER2-ECD Fc fusion protein
- method-summary: ELISA on HER2-ECD-Fc; antibody at 5 × 10^-5 µg/mL

binder	absorbance
24D3 (antibody, V domains shown) VH: EVKLVESGGGLVKPGGSLKLSCAASGFTFSSCAMSWVRQTPEKRLEWVATISGGGSYTYYPDSVKGRFTISRDNAKNTLYLQMSSLRSEDTAMYYCARHGGYESWFPYWGQGTLVTVSA VL: DIVMTQSPLSLPVSLGDQASISCRSSQSLVHSNGNTYLHWYLQKPGQSPKLLIYKVSNRFSGVPDRFSGSGSGTDFTLKISRVEAEDLGVYFCSQSTHVPPWTFGGGTKLEIK	0.12
1G3 (antibody, V domains shown) VH: EVQLQQSGAELVKPGASVKLSCTASDFNIVDTYMHWVKQRPEQGLEWIGRIDPANGYTRYDPNFQGKATITADTSSNTAYLQLSSLTSEDTAVYYCARYYYGFYAMDYWGQGTTVTVSS VL: DIVMTQSHKFMSTSVGDRVSITCKASQDVSTAVAWYQQKPGQSPKLLIYSASYRYTGVPDRFTGSGSGTDFTFTISSVQAEDLAVYYCQQHYSTPPTFGGGTKLELK	0.14
hz39D2 (antibody, V domains shown, Humanized antibody, captured as IgG by anti-human IgG in SPR; also called humanized 39D2 antibody) VH: QVQLVQSGSELKKPGASVKVSCKASGYTFTNYGVNWVRQAPGQGLEWMGWINTHTGEPTYAEEFKGRFVFSLDTSVSTAYLQISSLKAEDTAVYYCARDDYYVRVDYWGQGTTVTVSS VL: DIQMTQSPSSLSASVGDRVTITCKASQDINSYLSWFQQKPGKAPKTLIYRANRLVDGVPSRFSGSGSGQDYTLTISSLQPEDFATYYCLQYDEFPWTFGQGTKVEIK	0.15
hz8G11 (antibody, V domains shown, Humanized antibody, detected with anti-human IgG-HRP; also called humanized 8G11 antibody) VH: QVQLVQSGQEVKKPGASVKVSCKASGYSFTGYYMHWVRQAPGQGLEWIGHINPNNGGTSYNQKFKGRTTLTVDKSISTAYMELSRLRSDDTAVYYCAREEAFAYWGQGTLVTVSS VL: DIQMTQSPSSLSASVGDRVTISCRASQDISNYLNWYQQKPGKAPKLLIYYTSRLHSGVPSRFSGSGSGTDFSLTISSLQPEDIATYYCQQGITPPWTFGGGTKVEIK	0.14
